Recorded IC50 by entry
# assaySystem: endogenous CD38 in HL60 cells (Homo sapiens)
# Construct: endogenous in cells
# Sequence (P28907 whole entry): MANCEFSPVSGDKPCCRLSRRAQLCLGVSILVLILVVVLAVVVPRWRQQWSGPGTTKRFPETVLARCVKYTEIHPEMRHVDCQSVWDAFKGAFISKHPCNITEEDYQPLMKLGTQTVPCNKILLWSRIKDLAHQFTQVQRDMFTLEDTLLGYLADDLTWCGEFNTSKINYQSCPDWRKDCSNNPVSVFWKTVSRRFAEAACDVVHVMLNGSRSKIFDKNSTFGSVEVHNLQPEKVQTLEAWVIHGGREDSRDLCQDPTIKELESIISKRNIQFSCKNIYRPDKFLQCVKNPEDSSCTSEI
# measurementProtocol: cellular CD38 assay in HL60 cells (cellular NAD levels)
# assaySetup: all-trans retinoic acid, 24 hours, read-out: hCD38 HL60 ATRA NAD Cell Diaphorase IC50
observable: IC50

>>> measured("Cn1cncc1-c1nc(C(=O)N[C@H]2CC[C@H](OC(F)F)CC2)cc(C2CCOCC2)n1")
"1330 nM"
>>> measured("O=C(N[C@H]1C[C@H](c2ccc(C(F)(F)F)nc2)C1)c1nccc(-n2ccnc2)n1")
"3950 nM"
>>> measured("O=C(NC12CC(O)(C1)C2)c1cccc(-n2ccnc2)n1")
"9960 nM"
>>> measured("COC(=O)[C@H]1CC[C@H](NC(=O)c2ccnc(-n3ccnc3)n2)CC1")
"1800 nM"
